A collection of molecules and their measured isoTOP-ABPP ratio, lysine P27635_K121
target: RPL10 60S ribosomal protein L10 (Homo sapiens); construct: isoTOP-ABPP experiments performed in cell lysates (in vitro); endogenous in cells; host or cells: soluble proteome of human cancer cell lines (MDA-MB-231; Ramos and Jurkat also prepared); experiment: competitive isoTOP-ABPP; format: binding; settings: 50 uM_231_sol_in vitro
API doc: respond with a numeric literal and nothing else, no unit.

Past entries and their recorded results:
N#Cc1ccc(C(=O)Oc2ccc([N+](=O)[O-])cc2[N+](=O)[O-])cc1 [fragment 44, 2,4-Dinitrophenyl 4-cyanobenzoate] :: 0.6
O=C(Oc1c(F)c(F)cc(F)c1F)c1cc(C(F)(F)F)cc(C(F)(F)F)c1 :: 0.8
O=C(ON1C(=O)CCC1=O)c1cc(C(F)(F)F)cc(C(F)(F)F)c1 :: 0.8
O=C(CCc1ccc2c(c1)OCO2)Oc1ccc([N+](=O)[O-])cc1[N+](=O)[O-] :: 1.8

Incoming: # lookup: isoTOP-ABPP ratio, lysine P27635_K121 of `O=C(Oc1c(F)c(F)c(C(F)(F)F)c(F)c1F)c1cc(C(F)(F)F)cc(C(F)(F)F)c1`
Outgoing: 1.1

Where do the numbers come from? From patent US20210255193A1.
